# PROCEDURE_SUMMARY: chemical genetic growth profiling, strain panel (AID 1159580);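 further: tested at 20 µM; growth read once vehicle control cultures reached saturation at 30 °C; 1 = growth at the plate median or of vehicle wells; lower values mean less growth of the strain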
# MEASUREMENT_PARAMETERS: S. cerevisiae deletion strains, growth OD, locus YDL074C, strain BRE1, stronger effect = lower value
In all, about 5,500 compounds went through this assay and about 2,000 (36%) were called active. Not shown: some 18% with an inconclusive outcome. This is one part of the list.
This listing pairs molecules with measured normalized growth.

| MOLECULE | normalized growth |
| --- | --- |
| CCOC(=O)C1=C[C@]2(CC)CCCN3CCc4c(n1c1ccccc41)[C@@H]32 | 0.928 |
| O=C(O)CCC(=O)c1ccc(-c2ccccc2)cc1 | 0.957 |
| COC(=O)[C@H]1[C@H]2C[C@@H]3c4[nH]c5cc(OC)ccc5c4CCN3C[C@H]2C[C@@H](OC(=O)c2cc(OC)c(OC)c(OC)c2)[C@@H]1OC | 0.952 |
| CC(=O)C1=C(O)C2C3c4c[nH]c5cccc(c45)CC3C(C)(C)N2C1=O (stereo unspecified) | 1.01 |
| CS(=O)(=O)OCCCCOS(C)(=O)=O | 0.901 |
| COS(C)(=O)=O | 0.986 |
| CC1=C(/C=C/C(C)=C/C=C/C(C)=C/C(=O)O)C(C)(C)CCC1 | 0.995 |
| CC1=C(/C=C/C(C)=C/C=C/C(C)=C/CO)C(C)(C)CCC1 | 0.938 |
| CCn1cc(C(=O)O)c(=O)c2cnc(N3CCCC3)nc21 | 1.04 |
| CCn1cc(C(=O)O)c(=O)c2ccc(C)nc21 | 1.06 |
| CC1=C(/C=C/C(C)=C/C=C/C(C)=C\C(=O)O)C(C)(C)CCC1 | 0.856 |

---

# PROCEDURE_SUMMARY: chemical genetic growth profiling, strain panel (AID 1159580);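 further: tested at 20 µM; growth read once vehicle control cultures reached saturation at 30 °C; 1 = growth at the plate median or of vehicle wells; lower values mean less growth of the strain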
# MEASUREMENT_PARAMETERS: S. cerevisiae deletion strains, growth OD, locus YNL006W, strain LST8, stronger effect = lower value
About 2,000 (36%) of roughly 5,500 compounds were called active. About 18% were inconclusive and are not listed. This is one part of the list.

| COMPOUND | normalized growth |
| --- | --- |
| CCCC1c2ccsc2CCN1C(=S)Nc1ccc(Cl)cc1Cl (stereo unspecified) | 0.991 |
| CCC1CCC(C)N(C(=S)Nc2ccc(Br)cc2C)C1 (stereo unspecified) | 0.966 |
| CC(C)(O)C#Cc1ccc(/C=N\Nc2c(Cl)cc(Cl)cc2Cl)cc1 | 0.984 |
| O=S(=O)(Nc1cc(C(F)(F)F)ccc1F)c1cc(C(F)(F)F)ccc1Cl | 0.936 |
| CCCCCCCC1CCC/C1=N/OC(=O)c1cccs1 (stereo unspecified) | 1.01 |
| Cc1cc(C(=O)O/N=C(/N)c2ccc([N+](=O)[O-])o2)no1 | 0.979 |

---

This listing pairs compounds with measured normalized growth.
# PROCEDURE_SUMMARY: chemical genetic growth profiling, strain panel (AID 1159580);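 further: tested at 20 µM; growth read once vehicle control cultures reached saturation at 30 °C; 1 = growth at the plate median or of vehicle wells; lower values mean less growth of the strain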
# MEASUREMENT_PARAMETERS: S. cerevisiae deletion strains, growth OD, locus YKR001C, strain vps1, stronger effect = lower value
Out of some 5,500 compounds screened, about 2,000 (36%) were called active. Not shown: some 18% with an inconclusive outcome. The list shows a part of the results.
RECORDED_METRIC: normalized growth

| COMPOUND | OBSERVED_VALUE |
| --- | --- |
| C#C[C@]1(O)CCC2C3CCc4cc(O)ccc4C3CC[C@@]21C (stereo partly specified) | 0.959 |
| NC(=O)c1cc[n+](CC2=C(C(=O)O)N3C(=O)C(NC(=O)C(c4ccccc4)S(=O)(=O)[O-])C3SC2)cc1 (stereo unspecified) | 0.993 |
| O=C1O[C@@H](CO)[C@H](O)[C@@H](O)[C@@H]1O | 0.985 |
| CS(=O)(=O)OCCCCOS(C)(=O)=O | 0.89 |
| OCC(S)CS (stereo unspecified) | 0.978 |
| CC(Cc1ccc(O)c(O)c1)(NN)C(=O)O (stereo unspecified) | 1 |
